These entries and their values trace back to PubChem BioAssay AID1159580.

assay: chemical genetic growth profiling, strain panel (AID 1159580);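 also: tested at 20 µM; growth read once vehicle control cultures reached saturation at 30 °C; 1 = growth at the plate median or of vehicle wells; lower values mean less growth of the strain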; settings: S. cerevisiae deletion strains, growth OD, locus YHR079C, strain IRE1 (second series)
Screen size: about 5,500 compounds; about 2,000 (36%) were called active. Another 18% or so got no clear call; they are omitted. Rule as the data show it: active = normalized growth mostly below about 0.91 (no sharp cut-off); inconclusive = no clear call, values can overlap the other calls; inactive = mostly above about 0.92. The list shows a part of the results.
Respond using exactly one of the listed classes: label 1 for active, label 0 for inactive

Example results:
COc1ccc(-c2coc3cc(OC)ccc3c2=O)cc1
label 1
COc1ccc(-c2coc3cc(O)ccc3c2=O)c(OC)c1O
label 0
CC[C@@]1(O)C[C@H](O[C@H]2C[C@H](N(C)C)[C@H](O)[C@H](C)O2)c2c(cc3c(c2O)C(=O)c2c(O)cccc2C3=O)[C@H]1C(=O)OC
label 1

--- query ---
Prompt line: GET /call?item= COc1ccc(-c2coc3cc(O)ccc3c2=O)c(OC)c1 returns the recorded outcome of this test.
Response line: label 0

----------
experiment: chemical genetic growth profiling, strain panel (AID 1159580);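 also: tested at 20 µM; growth read once vehicle control cultures reached saturation at 30 °C; 1 = growth at the plate median or of vehicle wells; lower values mean less growth of the strain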; settings: S. cerevisiae deletion strains, growth OD, locus YPR163C, strain tif3, hits give low values
The whole screen tested about 5,500 compounds, of which about 2,000 (36%) were called active. Another 18% or so got no clear call; they are omitted. The list shows a part of the results.
Here the recorded normalized growth is given for each entry.
Answer with a bare number; do not write a unit.

See these solved cases before continuing.
COc1ccc(C(CN(C)C)C2(O)CCCCC2)cc1 (stereo not given)
0.984
CCC(C)C(=O)OC1CC2(C)C(c3ccoc3)OC(=O)CC23OC2(C)OC34C(OC(=O)C(C)C)C3(O)C(OC(=O)C5(C)OC5C)C5(C)CC3(O)C(C)(C5C(=O)OC)C14O2 (stereo not given)
1.02

Sure, the documented normalized growth for CCCCCCC(C)OC(=O)COc1cc(Cl)c(Cl)cc1Cl (stereo not given) is 0.985

For Clc1ccc(C(c2ccc(Cl)cc2)C(Cl)(Cl)Cl)cc1 the compound record lists normalized growth as 0.998

GET /value?item= CCC(C)C(=O)O[C@@H]1C[C@@]2(C)[C@H](c3ccoc3)OC(=O)CC23OC2(C)O[C@]14[C@]1(C)[C@@H](CC(=O)OC)C5(C)CC1(O)[C@](O)(C5OC(=O)C1(C)OC1C)[C@@H](OC(C)=O)[C@]34O2 (stereo not given in full) &field=normalized growth returns 1.02

----------
List of normalized growth values.
test: chemical genetic growth profiling, strain panel (AID 1159580);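 also: tested at 20 µM; growth read once vehicle control cultures reached saturation at 30 °C; 1 = growth at the plate median or of vehicle wells; lower values mean less growth of the strain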; conditions: S. cerevisiae deletion strains, growth OD, locus YGR135W, strain pre9, hits give low values
In all, about 5,500 compounds went through this assay and about 2,000 (36%) were called active. Inconclusive results (about 18%) are left out. Some of the results follow.
Provide a numeric answer; units are not to be included.

C[n+]1c2cc(N)ccc2cc2ccc(N)cc21
0.777
CN(C)CCN(Cc1cccs1)c1ccccn1
1.05
COc1ccc(CN(CCN(C)C)c2ccccn2)cc1
0.988
Oc1cc(O)c2c(c1)O[C@H](c1ccc(O)c(O)c1)[C@H](O)C2
1.01
Oc1cc(O)c2c(c1)OC(c1cc(O)c(O)c(O)c1)C(O)C2c1c(O)cc(O)c2c1OC(c1cc(O)c(O)c(O)c1)C(O)C2c1c(O)cc(O)c2c1OC(c1cc(O)c(O)c(O)c1)C(O)C2 (stereo unspecified)
0.912

Please look at the following molecule next.
Data point: Oc1ccc2c(c1)O[C@H](c1ccc(O)c(O)c1)[C@@H](O)C2 ; normalized growth = 1.01
